test: chemical genetic growth profiling, strain panel (AID 1159580);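 further: tested at 20 µM; growth read once vehicle control cultures reached saturation at 30 °C; 1 = growth at the plate median or of vehicle wells; lower values mean less growth of the strain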; conditions: S. cerevisiae deletion strains, growth OD, locus YCL011C, strain gbp2, stronger effect = lower value
About 2,000 (36%) of roughly 5,500 compounds were called active. Not shown: some 18% with an inconclusive outcome. Some of the results follow.
experimental_readout: normalized growth

Here's what some known entries look like.
The compound identified as COC(=O)CC1C(C)(C(=O)c2ccoc2)CC2OCC34C(CC(=O)OC)C5(C)CC36OC3(C)OC1(C(OC(C)=O)C6(OC(C)=O)C5OC(=O)C(C)C)C24O3 (centres undefined) registered its normalized growth at 0.972 (inactive)

The compound identified as CC(C)[C@@H]1CC[C@@H](C)CC1=O registered its normalized growth at 0.967 (inactive)

The compound identified as CCCCCC/C=C\CCCCCCCc1cccc(O)c1C(=O)O registered its normalized growth at 0.95 (inactive)

---
The compound identified as CCCC(=O)Nc1ccc(OCC(O)CNC(C)C)c(C(C)=O)c1 (centres undefined) registered its normalized growth at 1.03 (inactive)

The compound identified as CC12CCC(O)CC1CCc1ccccc12 (centres undefined) registered its normalized growth at 0.981 (inactive)

====

assay: chemical genetic growth profiling, strain panel (AID 1159580);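 further: tested at 20 µM; growth read once vehicle control cultures reached saturation at 30 °C; 1 = growth at the plate median or of vehicle wells; lower values mean less growth of the strain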; conditions: S. cerevisiae deletion strains, growth OD, locus YKL068W, stronger effect = lower value
The campaign covered roughly 5,500 compounds. About 2,000 (36%) were called active. Not shown: some 18% with an inconclusive outcome. The list shows a part of the results.
experimental_readout: normalized growth

The compound identified as COc1cc(O)c2c(c1)C(=O)c1cc(C)cc(O)c1C2=O registered its normalized growth at 1.01 (inactive)

The compound identified as O=C(/C=C/c1ccc(O)cc1)c1ccc(O)cc1O registered its normalized growth at 0.95 (inactive)

Now for another entry.
The compound identified as COc1ccc(/C=C/c2cc(O)cc(O[C@@H]3O[C@H](CO)[C@@H](O)[C@H](O)[C@H]3O)c2)cc1 registered its normalized growth at 0.979 (inactive)

====

test: chemical genetic growth profiling, strain panel (AID 1159580);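 further: tested at 20 µM; growth read once vehicle control cultures reached saturation at 30 °C; 1 = growth at the plate median or of vehicle wells; lower values mean less growth of the strain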; settings: S. cerevisiae deletion strains, growth OD, locus YMR205C, strain PFK2 (second series)
Hit rate of the full screen: of about 5,500 compounds, about 2,000 (36%) were called active. Not shown: some 18% with an inconclusive outcome. Cut-off read from the data, not from the text of the source: active = normalized growth mostly below about 0.91 (no sharp cut-off); inconclusive = no clear call, values can overlap the other calls; inactive = mostly above about 0.92. Some of the results follow.
The reply should be one of these categories: active, inactive

Completed entries (count: 5):
Prompt: Record lookup: outcome of this test for CCOC(=O)c1ccc(N=Cc2cc(Cl)cc(Cl)c2O)cc1 ?
Completion: active

Prompt: Record lookup: outcome of this test for Cc1ccc2nc3c(nc2c1)-c1ccccc1C3=O ?
Completion: active

Prompt: Record lookup: outcome of this test for COC(=S)Nc1cc(Cl)cc(Cl)c1 ?
Completion: active

Prompt: Record lookup: outcome of this test for COC(=O)c1sccc1S(=O)(=O)Nc1cc(C(F)(F)F)cc(C(F)(F)F)c1 ?
Completion: inactive

Prompt: Record lookup: outcome of this test for COc1cc(C2SCCS2)cc(Br)c1OC(=O)NC(=O)c1c(Cl)cccc1Cl ?
Completion: inactive

Consider now this further molecule.
Prompt: Record lookup: outcome of this test for COc1ccc(Oc2ccc([N+](=O)[O-])cc2C(=O)O/N=C(/N)c2ccc(C(F)(F)F)cc2)cc1 ?
Completion: inactive
